Just for reference, paper PMC9403717 is where these values come from.

tested on: COV362 cells; assay: Cell proliferation assay (alamarBlue), chemoresistant ovarian cancer cell line COV362; type: cell-based, human; details: 48 h incubation
endpoint: IC50
Enter the number, and then the unit.

Guide cases for IC50, answers given:
>  <query.smiles>
Cc1ccc(C(C)C)cc1.O=C(C=C([O][Ru][Cl])c1ccc2c(c1)OCO2)C(F)(F)F

>  <IC50>
136 µM

$$$$
>  <query.smiles>
Cc1ccc(C(C)C)cc1.O=C(C=C([O][Ru][Cl])c1ccc(I)cc1)C(F)(F)F

>  <IC50>
96.6 µM

$$$$
>  <query.smiles>
Cc1ccc(C(C)C)cc1.[Cl-].[O-]c1c(I)cc(Cl)c2cccnc12.[Ru+2]

>  <IC50>
17.7 µM

$$$$

Let us examine a further case.
stdin: Answer with the recorded IC50 for the molecule listed here: `Cc1ccc(C(C)C)cc1.O=[N+]([O-])c1ccc([O][Ru][Cl])c2ncccc12`
stdout: 21.5 µM

----------
molecular target: AKR1C2 (Homo sapiens); construct: made in house; test: Inhibition of recombinant AKR1C2, oxidation of 1-acenaphthenol, progress-curve analysis; assay type: biochemical; conditions: AKR1C2; irreversible binding of second inhibitor molecule to E-NAD-I
Sequence (P52895 whole entry): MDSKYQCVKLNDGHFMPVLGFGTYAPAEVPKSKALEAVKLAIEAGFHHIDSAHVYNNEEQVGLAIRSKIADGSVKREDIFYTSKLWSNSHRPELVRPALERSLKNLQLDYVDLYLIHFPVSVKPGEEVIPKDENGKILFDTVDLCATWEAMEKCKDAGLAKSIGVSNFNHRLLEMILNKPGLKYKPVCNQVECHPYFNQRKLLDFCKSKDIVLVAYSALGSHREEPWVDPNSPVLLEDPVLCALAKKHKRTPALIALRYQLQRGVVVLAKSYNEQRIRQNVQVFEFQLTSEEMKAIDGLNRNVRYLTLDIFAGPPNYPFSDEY
endpoint: k+2

Could you tell me k+2 for each of these compounds? They are listed below.
1. C1N2CN3CN1CP(C2)C3.Cc1ccc(C(C)C)cc1.F[P-](F)(F)(F)(F)F.[O-]c1c(I)cc(Cl)c2cccnc12.[Ru+2] [Compound 8]
2. C1N2CN3CN1CP(C2)C3.Cc1ccc(C(C)C)cc1.F[P-](F)(F)(F)(F)F.O=C(C=C([O][Ru+])c1ccc(I)cc1)C(F)(F)F [Compound 2]
3. CN(C)c1ccc(C(=O)C=C([O][Ru+][PH]23CN4CN(CN(C4)C2)C3)C(F)(F)F)cc1.Cc1ccc(C(C)C)cc1.F[P-](F)(F)(F)(F)F [Compound 4]

stdout:
["929 M⁻¹ s⁻¹", "12.6 M⁻¹ s⁻¹", "1.9 M⁻¹ s⁻¹"]

Could you tell me k+2 for each of these compounds? They are listed below.
1. CN(C)c1ccc(C(=CC(=O)C(F)(F)F)[O][Ru][Cl])cc1.Cc1ccc(C(C)C)cc1 [Compound 3]
2. C1N2CN3CN1CP(C2)C3.Cc1ccc(C(C)C)cc1.F[P-](F)(F)(F)(F)F.O=C(C=C([O][Ru+])c1ccc2c(c1)OCO2)C(F)(F)F [Compound 6]
3. C1N2CN3CN1CP(C2)C3.Cc1ccc(C(C)C)cc1.F[P-](F)(F)(F)(F)F.O=[N+]([O-])c1ccc([O][Ru+])c2ncccc12 [Compound 10]

stdout:
["7.4 M⁻¹ s⁻¹", "172 M⁻¹ s⁻¹", "5.1 M⁻¹ s⁻¹"]

----------
Target: AKR1C1 (Homo sapiens, UniProt Q04828)
Construct: made in house
Sequence (Q04828 whole entry): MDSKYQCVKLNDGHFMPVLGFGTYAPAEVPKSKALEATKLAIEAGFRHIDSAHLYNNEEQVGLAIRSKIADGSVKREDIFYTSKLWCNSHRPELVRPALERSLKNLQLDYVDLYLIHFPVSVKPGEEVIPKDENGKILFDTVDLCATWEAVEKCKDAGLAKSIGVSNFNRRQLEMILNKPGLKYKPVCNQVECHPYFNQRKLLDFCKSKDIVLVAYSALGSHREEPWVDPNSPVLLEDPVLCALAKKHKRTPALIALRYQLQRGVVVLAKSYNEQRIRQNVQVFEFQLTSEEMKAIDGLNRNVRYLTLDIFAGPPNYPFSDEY
Assay: Inhibition of recombinant AKR1C1, oxidation of 1-acenaphthenol, progress-curve analysis
Assay type: biochemical
Details: reversible binding to holoenzyme E-NADH, read-out: K3
Procedure: To investigate the effect of ten selected ruthenium compounds, we measured their effect on the time course of oxidation of the artificial substrate 1-acenaphtenol by recombinant enzymes AKR1C1–3. […] The in vitro catalytic activity of AKR1C1–3 enzymes was determined spectrophotometrically by monitoring the increase in NADH absorbance at 340 nm (ε(λ340) = 6220 M^−1cm^−1) in the presence of the substrate 1-acenaphthenol. […]
Hi there, I'd appreciate the recorded Ki for every entry that follows.
Numbers only, in nM.

Guide cases for Ki, answers given:
>  <query.smiles>
CN(C)c1ccc(C(=CC(=O)C(F)(F)F)[O][Ru][Cl])cc1.Cc1ccc(C(C)C)cc1

>  <Ki / nM>
42.9

$$$$
>  <query.smiles>
Cc1ccc(C(C)C)cc1.O=C(C=C([O][Ru][Cl])c1ccc(I)cc1)C(F)(F)F

>  <Ki / nM>
21.4

$$$$
>  <query.smiles>
Cc1ccc(C(C)C)cc1.O=C(C=C([O][Ru][Cl])c1ccc2c(c1)OCO2)C(F)(F)F

>  <Ki / nM>
23.5

$$$$

stdin: Answer with the recorded Ki for the compound listed here: `Cc1ccc(C(C)C)cc1.[Cl-].[O-]c1c(I)cc(Cl)c2cccnc12.[Ru+2]`
stdout: 345
